Cited source for all entries: ChEMBL document CHEMBL1143122

Tested on: SF-295
PROTOCOL: Antiproliferative activity against human SF295 cells after 48 hrs
Format: functional
EXPERIMENTAL CONDITIONS: SF-295, 48 h, read-out: Log TGI (converted)
Below: a set of entries, each annotated with reported TGI.
METRIC NAME: TGI (µM)

{"SMILES ENTRY": "CCCCCCCCCCCCCCN[C@@H](C)[C@H](O)c1ccccc1", "UNIT SPEC": "µM", "READOUT NUMBER": 3.39}
{"SMILES ENTRY": "C[C@@H](NC(=O)CCCCCCCCCCCCCCC[n+]1ccccc1)[C@@H](O)c1ccccc1.[Br-]", "UNIT SPEC": "µM", "READOUT NUMBER": 24}
{"SMILES ENTRY": "CCCCCCCCCCCCCCN[C@H](CO)[C@H](O)c1ccc([N+](=O)[O-])cc1.Cl", "UNIT SPEC": "µM", "READOUT NUMBER": 4.68}
{"SMILES ENTRY": "C[C@H](NC(=O)CCCCCCCCCCCCCCC[n+]1ccccc1)[C@H](O)c1ccccc1.[Br-]", "UNIT SPEC": "µM", "READOUT NUMBER": 27.5}
{"SMILES ENTRY": "CCCCCCCCCCCCCCN[C@@H](CO)Cc1ccccc1", "UNIT SPEC": "µM", "READOUT NUMBER": 3.31}
{"SMILES ENTRY": "CCCCCCCCCCCCCCN[C@H](CO)[C@H](O)c1ccccc1", "UNIT SPEC": "µM", "READOUT NUMBER": 3.55}
{"SMILES ENTRY": "CCCCCCCCCCCCCCN[C@H](C)[C@@H](O)c1ccccc1.Cl", "UNIT SPEC": "µM", "READOUT NUMBER": 3.39}

====

Test system: CAKI-1
PROTOCOL: Antiproliferative activity against human CAKI1 cells after 48 hrs
Format: functional
EXPERIMENTAL CONDITIONS: CAKI-1, 48 h
Mark each entry condition met if its GI50 sits below 2000 nM, and condition not met for all others.

{"SMILES ENTRY": "CCCCCCCCCCCCCCN[C@@H](CO)Cc1ccccc1", "ASSIGNED CLASS": "condition met"}
{"SMILES ENTRY": "CCCCCCCCCCCCCCN[C@H](CO)[C@H](O)c1ccc([N+](=O)[O-])cc1.Cl", "ASSIGNED CLASS": "condition not met"}
{"SMILES ENTRY": "C[C@@H](NC(=O)CCCCCCCCCCCCCCC[n+]1ccccc1)[C@@H](O)c1ccccc1.[Br-]", "ASSIGNED CLASS": "condition met"}
{"SMILES ENTRY": "CCCCCCCCCCCCCCN[C@H](CO)[C@H](O)c1ccccc1", "ASSIGNED CLASS": "condition met"}
{"SMILES ENTRY": "C[C@H](NC(=O)CCCCCCCCCCCCCCC[n+]1ccccc1)[C@H](O)c1ccccc1.[Br-]", "ASSIGNED CLASS": "condition not met"}

====

Tested on: HOP-92
PROTOCOL: Antiproliferative activity against human HOP92 cells after 48 hrs
Type: functional
EXPERIMENTAL CONDITIONS: HOP-92, 48 h, read-out: Log TGI (converted)

{"SMILES ENTRY": "C[C@@H](NC(=O)CCCCCCCCCCCCCCC[n+]1ccccc1)[C@@H](O)c1ccccc1.[Br-]", "TGI (µM)": 0.912}
{"SMILES ENTRY": "CCCCCCCCCCCCCCN[C@H](CO)[C@H](O)c1ccc([N+](=O)[O-])cc1.Cl", "TGI (µM)": 2.75}
{"SMILES ENTRY": "CCCCCCCCCCCCCCN[C@@H](CO)Cc1ccccc1", "TGI (µM)": 2.82}
{"SMILES ENTRY": "CCCCCCCCCCCCCCN[C@H](C)[C@@H](O)c1ccccc1.Cl", "TGI (µM)": 3.02}
{"SMILES ENTRY": "CCCCCCCCCCCCCCN[C@H](CO)[C@H](O)c1ccccc1", "TGI (µM)": 2.88}
{"SMILES ENTRY": "CCCCCCCCCCCCCCN[C@@H](C)[C@H](O)c1ccccc1", "TGI (µM)": 3.09}

====

System: SK-OV-3
PROTOCOL: Antiproliferative activity against human SKOV3 cells after 48 hrs
Type: functional
EXPERIMENTAL CONDITIONS: SK-OV-3, 48 h, read-out: Log TGI (converted)
METRIC NAME: TGI

{"SMILES ENTRY": "C[C@@H](NC(=O)CCCCCCCCCCCCCCC[n+]1ccccc1)[C@@H](O)c1ccccc1.[Br-]", "RESULT": "13.5 µM"}
{"SMILES ENTRY": "CCCCCCCCCCCCCCN[C@H](C)[C@@H](O)c1ccccc1.Cl", "RESULT": "4.79 µM"}
{"SMILES ENTRY": "CCCCCCCCCCCCCCN[C@@H](C)[C@H](O)c1ccccc1", "RESULT": "4.79 µM"}
{"SMILES ENTRY": "C[C@H](NC(=O)CCCCCCCCCCCCCCC[n+]1ccccc1)[C@H](O)c1ccccc1.[Br-]", "RESULT": "12 µM"}
{"SMILES ENTRY": "CCCCCCCCCCCCCCN[C@H](CO)[C@H](O)c1ccccc1", "RESULT": "24.5 µM"}
{"SMILES ENTRY": "CCCCCCCCCCCCCCN[C@@H](CO)Cc1ccccc1", "RESULT": "4.57 µM"}
{"SMILES ENTRY": "CCCCCCCCCCCCCCN[C@H](CO)[C@H](O)c1ccc([N+](=O)[O-])cc1.Cl", "RESULT": "27.5 µM"}

====

Test system: HOP-92
PROTOCOL: Antiproliferative activity against human HOP92 cells after 48 hrs
Format: functional
EXPERIMENTAL CONDITIONS: HOP-92, 48 h
Known LC50 of a selection of compounds

{"SMILES ENTRY": "CCCCCCCCCCCCCCN[C@H](CO)[C@H](O)c1ccccc1", "LC50 (µM)": 5.89}
{"SMILES ENTRY": "CCCCCCCCCCCCCCN[C@H](CO)[C@H](O)c1ccc([N+](=O)[O-])cc1.Cl", "LC50 (µM)": 6.17}
{"SMILES ENTRY": "C[C@@H](NC(=O)CCCCCCCCCCCCCCC[n+]1ccccc1)[C@@H](O)c1ccccc1.[Br-]", "LC50 (µM)": 5.75}
{"SMILES ENTRY": "CCCCCCCCCCCCCCN[C@H](C)[C@@H](O)c1ccccc1.Cl", "LC50 (µM)": 5.89}
{"SMILES ENTRY": "CCCCCCCCCCCCCCN[C@@H](CO)Cc1ccccc1", "LC50 (µM)": 6.46}

====

Entries and their GI50 values follow.
PROTOCOL: Antiproliferative activity against human […] cells after 48 hrs
Assay type: functional

{"SMILES ENTRY": "CCCCCCCCCCCCCCN[C@@H](CO)Cc1ccccc1", "GI50": "4.68 µM"}
{"SMILES ENTRY": "C[C@H](NC(=O)CCCCCCCCCCCCCCC[n+]1ccccc1)[C@H](O)c1ccccc1.[Br-]", "GI50": "3.63 µM"}
{"SMILES ENTRY": "CCCCCCCCCCCCCCN[C@H](CO)[C@H](O)c1ccc([N+](=O)[O-])cc1.Cl", "GI50": "2 µM"}
{"SMILES ENTRY": "CCCCCCCCCCCCCCN[C@H](CO)[C@H](O)c1ccccc1", "GI50": "3.16 µM"}
{"SMILES ENTRY": "C[C@@H](NC(=O)CCCCCCCCCCCCCCC[n+]1ccccc1)[C@@H](O)c1ccccc1.[Br-]", "GI50": "2.57 µM"}
{"SMILES ENTRY": "CCCCCCCCCCCCCCN[C@H](C)[C@@H](O)c1ccccc1.Cl", "GI50": "1.62 µM"}
{"SMILES ENTRY": "CCCCCCCCCCCCCCN[C@@H](C)[C@H](O)c1ccccc1", "GI50": "2 µM"}

====

System: CCRF-CEM
PROTOCOL: Antiproliferative activity against human CCRF-CEM cells after 48 hrs
Type: functional
Examples of compounds with documented GI50 follow.
METRIC NAME: GI50 (nM)

{"SMILES ENTRY": "CCCCCCCCCCCCCCN[C@@H](CO)Cc1ccccc1", "RELATION OPERATOR": "=", "READOUT NUMBER": 1740}
{"SMILES ENTRY": "CCCCCCCCCCCCCCN[C@H](C)[C@@H](O)c1ccccc1.Cl", "RELATION OPERATOR": "=", "READOUT NUMBER": 1450}
{"SMILES ENTRY": "CCCCCCCCCCCCCCN[C@H](CO)[C@H](O)c1ccccc1", "RELATION OPERATOR": "=", "READOUT NUMBER": 1580}
{"SMILES ENTRY": "CCCCCCCCCCCCCCN[C@H](CO)[C@H](O)c1ccc([N+](=O)[O-])cc1.Cl", "RELATION OPERATOR": "=", "READOUT NUMBER": 2000}
{"SMILES ENTRY": "CCCCCCCCCCCCCCN[C@@H](C)[C@H](O)c1ccccc1", "RELATION OPERATOR": "=", "READOUT NUMBER": 2400}
{"SMILES ENTRY": "C[C@@H](NC(=O)CCCCCCCCCCCCCCC[n+]1ccccc1)[C@@H](O)c1ccccc1.[Br-]", "RELATION OPERATOR": "<", "READOUT NUMBER": 10}
